tested_system: D(4) dopamine receptor (Homo sapiens)
Sequence (P21917 whole entry): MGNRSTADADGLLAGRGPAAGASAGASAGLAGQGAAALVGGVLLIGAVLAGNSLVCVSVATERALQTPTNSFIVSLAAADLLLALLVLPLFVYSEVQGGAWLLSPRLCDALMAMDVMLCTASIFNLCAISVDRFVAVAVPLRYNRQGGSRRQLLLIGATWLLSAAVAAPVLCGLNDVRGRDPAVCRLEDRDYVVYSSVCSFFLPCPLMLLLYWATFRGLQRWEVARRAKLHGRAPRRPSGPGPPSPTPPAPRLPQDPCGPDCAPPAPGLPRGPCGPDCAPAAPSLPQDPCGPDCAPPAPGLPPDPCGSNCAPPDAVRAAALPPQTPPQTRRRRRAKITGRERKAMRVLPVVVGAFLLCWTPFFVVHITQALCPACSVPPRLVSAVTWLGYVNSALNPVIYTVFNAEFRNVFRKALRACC
assay_remarks: Affinity was evaluated as inhibition constant for dopamine D-4 receptor
result_type: Ki (nM)

Check out these entries, answers already filled in.
>>> endpoint_value("CN1CCN(C2=Nc3ccccc3Nc3ccc(Cl)cc32)CC1")
16
>>> endpoint_value("CN1CCN(C2=Nc3ccccc3Nc3ccccc32)CC1")
420
>>> endpoint_value("CC1CCN(C2=Cc3cc(Cl)ccc3Cc3ccccc32)CC1")
1000
>>> endpoint_value("C[C@H]1c2ccccc2C=C(C2=CCN(C)CC2)c2ccccc21")
400
>>> endpoint_value("CN1CCN(C2=Nc3cc(Cl)ccc3N(C)c3ccccc32)CC1")
120

I: CC1c2ccccc2C=C(C2=CCN(C)CC2)c2ccccc21 (racemic)
II: C[C@@H]1c2ccccc2C=C(C2=CCN(C)CC2)c2ccccc21
Hi there! Just curious which has the higher Ki between I and II . Choose, then provide that item's label.
I
(I: 320 nM, II: 190 nM)

a: C=C1c2ccccc2C=C(C2=CCN(C)CC2)c2ccccc21
b: CN1CCC(C2=Cc3cc(Cl)ccc3Cc3ccccc32)CC1
Kindly identify the item with the lower Ki figure among these two: a and b Choose, then provide that item's label.
a
(a: 330 nM, b: 2700 nM)

----------
tested_system: 5-hydroxytryptamine receptor 2C (Rattus norvegicus, UniProt P08909)
Sequence (P08909 whole entry): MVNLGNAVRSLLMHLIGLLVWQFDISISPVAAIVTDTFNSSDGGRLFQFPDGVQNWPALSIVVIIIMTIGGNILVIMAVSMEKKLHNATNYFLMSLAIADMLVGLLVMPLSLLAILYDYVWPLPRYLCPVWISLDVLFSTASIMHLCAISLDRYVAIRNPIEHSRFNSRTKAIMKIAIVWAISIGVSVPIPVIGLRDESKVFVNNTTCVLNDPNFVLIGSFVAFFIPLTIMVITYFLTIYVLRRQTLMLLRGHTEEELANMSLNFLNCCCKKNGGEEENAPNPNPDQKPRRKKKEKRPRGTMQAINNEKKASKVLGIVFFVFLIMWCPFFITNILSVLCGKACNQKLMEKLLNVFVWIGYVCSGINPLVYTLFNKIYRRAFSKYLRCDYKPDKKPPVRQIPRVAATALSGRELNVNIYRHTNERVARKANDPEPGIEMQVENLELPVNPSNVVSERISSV
assay_remarks: Affinity was evaluated as inhibition constant for serotonin 5-hydroxytryptamine 2C receptor
result_type: Ki (nM)

Check out these entries, answers already filled in.
>>> endpoint_value("CC1c2ccccc2C=C(C2=CCN(C)CC2)c2ccccc21 (racemic)")
89
>>> endpoint_value("CN1CCN(C2=Nc3ccccc3Nc3ccccc32)CC1")
84

P: C[C@@H]1c2ccccc2C=C(C2=CCN(C)CC2)c2ccccc21
Q: C[C@H]1c2ccccc2C=C(C2=CCN(C)CC2)c2ccccc21
R: CN1CCC(C2=Cc3cc(Cl)ccc3Cc3ccccc32)CC1
S: C=C1c2ccccc2C=C(C2=CCN(C)CC2)c2ccccc21
Rank items: key Ki, increasing. Answer by listing the labels in the order asked for.
R, S, P, Q

----------
tested_system: D(2) dopamine receptor (Homo sapiens, UniProt P14416)
Sequence (P14416 whole entry): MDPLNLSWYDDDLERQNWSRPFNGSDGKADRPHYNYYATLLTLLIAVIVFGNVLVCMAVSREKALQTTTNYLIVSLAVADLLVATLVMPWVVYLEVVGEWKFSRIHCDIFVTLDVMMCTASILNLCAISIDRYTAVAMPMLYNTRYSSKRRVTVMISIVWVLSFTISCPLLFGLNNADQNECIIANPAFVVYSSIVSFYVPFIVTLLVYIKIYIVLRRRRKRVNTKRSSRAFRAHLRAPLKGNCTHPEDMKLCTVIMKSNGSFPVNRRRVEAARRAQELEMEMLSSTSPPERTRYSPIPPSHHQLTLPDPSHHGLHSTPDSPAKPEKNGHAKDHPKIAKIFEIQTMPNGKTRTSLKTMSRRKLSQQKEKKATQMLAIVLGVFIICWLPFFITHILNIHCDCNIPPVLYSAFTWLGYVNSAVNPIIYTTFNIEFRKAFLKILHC
assay_remarks: Affinity was evaluated as inhibition constant for dopamine D-2 receptor
pKi: −log10 of the molar value.
result_type: pKi

Check out these entries, answers already filled in.
>>> endpoint_value("CC1c2ccccc2C=C(C2=CCN(C)CC2)c2ccccc21 (racemic)")
6.17
>>> endpoint_value("CN1CCC(C2=Cc3cc(Cl)ccc3Cc3ccccc32)CC1")
6.25
>>> endpoint_value("CN1CCN(C2=Nc3ccccc3Nc3ccccc32)CC1")
5.60
>>> endpoint_value("C[C@@H]1c2ccccc2C=C(C2=CCN(C)CC2)c2ccccc21")
6.19
>>> endpoint_value("CN1CCN(C2=Nc3cc(Cl)ccc3N(C)c3ccccc32)CC1")
5.96

P: C=C1c2ccccc2C=C(C2=CCN(C)CC2)c2ccccc21
Q: C[C@H]1c2ccccc2C=C(C2=CCN(C)CC2)c2ccccc21
Hi there! Just curious which has the higher pKi between P and Q . Choose, then provide that item's label.
P

----------
tested_system: Serotonin 3 (5-HT3) receptor (Rattus norvegicus, UniProt P35563+Q9JJ16)
Sequence (P35563 whole entry): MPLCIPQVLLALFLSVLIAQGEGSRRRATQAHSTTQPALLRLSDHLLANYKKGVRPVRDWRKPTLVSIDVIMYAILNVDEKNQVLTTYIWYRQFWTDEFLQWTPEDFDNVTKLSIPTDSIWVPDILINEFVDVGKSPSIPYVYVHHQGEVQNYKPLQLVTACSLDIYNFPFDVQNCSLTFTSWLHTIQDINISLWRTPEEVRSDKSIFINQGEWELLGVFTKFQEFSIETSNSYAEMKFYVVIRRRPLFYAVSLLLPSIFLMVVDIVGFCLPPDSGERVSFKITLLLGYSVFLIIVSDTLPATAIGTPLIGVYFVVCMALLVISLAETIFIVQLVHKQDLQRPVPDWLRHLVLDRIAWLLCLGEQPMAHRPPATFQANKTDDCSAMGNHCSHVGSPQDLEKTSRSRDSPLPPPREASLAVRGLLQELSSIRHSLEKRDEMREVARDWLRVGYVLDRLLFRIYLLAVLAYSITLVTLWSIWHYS
Sequence (Q9JJ16 whole entry): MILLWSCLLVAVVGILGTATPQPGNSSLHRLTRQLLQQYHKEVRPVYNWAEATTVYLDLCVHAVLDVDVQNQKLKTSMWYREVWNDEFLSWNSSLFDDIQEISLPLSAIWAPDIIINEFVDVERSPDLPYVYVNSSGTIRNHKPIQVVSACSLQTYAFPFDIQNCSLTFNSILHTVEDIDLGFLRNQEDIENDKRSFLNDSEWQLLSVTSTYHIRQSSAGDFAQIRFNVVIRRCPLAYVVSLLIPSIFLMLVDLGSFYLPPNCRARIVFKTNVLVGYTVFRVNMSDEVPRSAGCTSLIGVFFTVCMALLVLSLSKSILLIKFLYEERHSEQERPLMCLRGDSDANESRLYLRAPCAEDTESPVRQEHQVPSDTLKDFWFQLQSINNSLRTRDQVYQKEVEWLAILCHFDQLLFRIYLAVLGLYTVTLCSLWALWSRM
assay_remarks: Affinity was evaluated as inhibition constant for serotonin 5-hydroxytryptamine 3 receptor
Type: protein-complex assay
result_type: Ki (nM)

>>> endpoint_value("CN1CCC(C2=Cc3cc(Cl)ccc3Cc3ccccc32)CC1")
41

I: CN1CCN(C2=Nc3cc(Cl)ccc3N(C)c3ccccc32)CC1
II: CN1CCN(C2=Nc3ccccc3Nc3ccc(Cl)cc32)CC1
Hi there! Just curious which has the higher Ki between I and II . Choose, then provide that item's label.
I
(I: 40 nM, II: 22 nM)

----------
tested_system: D(1A) dopamine receptor (Rattus norvegicus)
Sequence (P18901 whole entry): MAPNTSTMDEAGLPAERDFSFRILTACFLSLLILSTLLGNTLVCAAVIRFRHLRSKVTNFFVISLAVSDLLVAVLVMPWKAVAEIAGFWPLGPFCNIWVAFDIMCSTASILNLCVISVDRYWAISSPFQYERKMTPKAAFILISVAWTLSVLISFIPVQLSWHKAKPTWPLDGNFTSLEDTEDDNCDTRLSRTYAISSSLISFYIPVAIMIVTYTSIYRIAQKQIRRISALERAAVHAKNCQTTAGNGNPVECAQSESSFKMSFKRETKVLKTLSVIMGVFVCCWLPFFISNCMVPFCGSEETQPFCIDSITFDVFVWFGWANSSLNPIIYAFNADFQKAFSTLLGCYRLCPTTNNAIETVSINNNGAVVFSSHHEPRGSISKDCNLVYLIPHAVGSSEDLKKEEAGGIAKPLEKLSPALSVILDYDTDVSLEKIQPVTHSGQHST
assay_remarks: Affinity was evaluated as inhibition constant for dopamine receptor D1 using [3H]-SCH- 23390 as radioligand
result_type: Ki (nM)

Check out these entries, answers already filled in.
>>> endpoint_value("CC(C)=C1c2ccc(Cl)cc2C=C(N2CCN(C)CC2)c2ccccc21")
98
>>> endpoint_value("CC(C)=C1c2ccccc2C=C(N2CCN(C)CC2)c2ccccc21")
120
>>> endpoint_value("CN1CCN(C2=Nc3ccccc3Nc3ccc(Cl)cc32)CC1 [ISOCLOZAPINE]")
14
>>> endpoint_value("C/C=C1/c2ccccc2C=C(N2CCN(C)CC2)c2ccccc21")
68
>>> endpoint_value("C=C1c2ccccc2C=C(N2CCN(C)CC2)c2ccccc21")
4.7

A: CN1CCN(C2=Nc3ccccc3Nc3ccccc32)CC1
B: CC1c2ccccc2C=C(N2CCN(C)CC2)c2ccccc21 (configuration not stated)
Kindly identify the item with the lower Ki figure among these two: A and B Choose, then provide that item's label.
B
(B: 16 nM, A: 200 nM)

----------
assay_remarks: Ratio between Ki values of D2 and S-2A receptors
result_type: Ratio

Check out these entries, answers already filled in.
>>> endpoint_value("CN1CCN(C2=Cc3cc(Cl)ccc3Oc3ccccc32)CC1")
3
>>> endpoint_value("C=C1c2ccccc2C=C(C2=CCN(C)CC2)c2ccccc21")
8.3
>>> endpoint_value("CN1CCN(C2=Cc3ccccc3Oc3ccc(Cl)cc32)CC1")
0.8

I: CC1c2ccccc2C=C(C2=CCN(C)CC2)c2ccccc21 (racemic)
II: C=C1c2ccccc2C=C(N2CCN(C)CC2)c2ccccc21
Kindly identify the item with the lower Ratio figure among these two: I and II Choose, then provide that item's label.
II
(II: 5.2, I: 9.4)

----------
tested_system: 5-hydroxytryptamine receptor 2A (Rattus norvegicus, UniProt P14842)
Sequence (P14842 whole entry): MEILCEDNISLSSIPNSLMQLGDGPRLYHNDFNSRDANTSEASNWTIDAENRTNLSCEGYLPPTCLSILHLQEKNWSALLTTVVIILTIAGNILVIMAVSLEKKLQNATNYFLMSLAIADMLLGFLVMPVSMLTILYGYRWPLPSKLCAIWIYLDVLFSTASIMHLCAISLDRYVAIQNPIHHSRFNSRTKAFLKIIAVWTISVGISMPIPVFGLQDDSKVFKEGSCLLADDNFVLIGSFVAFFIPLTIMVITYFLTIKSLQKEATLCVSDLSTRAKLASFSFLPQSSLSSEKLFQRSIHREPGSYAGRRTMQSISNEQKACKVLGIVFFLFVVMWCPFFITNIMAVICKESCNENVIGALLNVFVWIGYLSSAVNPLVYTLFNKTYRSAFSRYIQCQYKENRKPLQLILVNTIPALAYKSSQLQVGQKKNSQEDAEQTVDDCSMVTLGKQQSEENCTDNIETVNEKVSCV
assay_remarks: Affinity was evaluated by inhibition of [125I]LSD binding to NIH 3T3 cells transfected with cloned rat 5-hydroxytryptamine 2A receptor
Format: cell-based, NIH3T3
result_type: Ki (nM)

Check out these entries, answers already filled in.
>>> endpoint_value("CN1CCN(C2=Cc3cc(Cl)ccc3Oc3ccccc32)CC1")
3
>>> endpoint_value("CN1CCN(C2=Nc3cc(Cl)ccc3Oc3ccccc32)CC1 [ISOLOXAPINE]")
11

a: C=C1c2ccccc2C=C(N2CCN(C)CC2)c2ccccc21
b: CC1c2ccccc2C=C(N2CCN(C)CC2)c2ccccc21 (centres undefined)
Kindly identify the item with the lower Ki figure among these two: a and b Choose, then provide that item's label.
a
